parameter: melting point

Recorded results for 8 molecules are shown here.
{"molecule": "CN1CCN(Cc2ccc(-c3ccc(-c4cn([C@H]5CN6CCC5CC6)nn4)s3)cc2)CC1", "melting point": "214 °C"}
{"molecule": "CS(=O)(=O)c1ccc(-c2nc(C(F)(F)F)nc(Cl)c2-c2ccc(F)cc2)cc1", "melting point": "195 to 197 °C"}
{"molecule": "CCC(O)CNC(=O)c1ccc(C(F)(F)F)c(N)c1 (stereo not given)", "melting point": "132 to 134 °C"}
{"molecule": "O=S(=O)(Cl)c1ccc(Oc2ccc(Br)cc2)cc1", "melting point": "80.9 °C"}
{"molecule": "Cn1nc(C(F)(F)F)nc1NC(=O)CCCOc1cccc(CN2CCCCC2)c1", "melting point": "96 to 97 °C"}
{"molecule": "COc1ccc([C@@H]2CCCC[C@@H]2N)cc1OC", "melting point": "80 to 81.5 °C"}
{"molecule": "Cn1ncnc1COc1nn2c(-c3ccc(F)cc3)nncc2c1-c1ccccc1F", "melting point": "191 °C"}
{"molecule": "CCn1c2ccc3ccccc3c2c2cccc(C=O)c21", "melting point": "148 to 149 °C"}

Query: melting point for C[C@H](NC(=O)C[C@](O)(CC(C)(C)O)c1ccccc1)c1ccc(Br)cc1 ?
Response: 150 to 152 °C

Query: Likewise for COc1cc(C=CC(=O)Nc2cnc3c(C)cc(C)cc3c2-c2ccc(F)cc2)cc(OC)c1OC(C)=O ?
Response: 260 to 261 °C

Query: Likewise for O=C(c1c(F)cccc1F)C1CC1c1ccc(Br)cc1 (stereo not given) ?
Response: 64 to 65 °C

FYI, the data here is from a melting point compilation (Tetko et al.; mined from patent text by program, amines drawn as free bases though some values may be those of a salt).
